measuredOn: Human membrane-bound BAFF (mbBAFF) (human, UniProt Q9Y275 1-285)
testMethodNotes: cell-based or functional assay
parameter: Potent mbBAFF Neutralization IC90 (µM)
Numeric only. Scale: µM

Query: Any idea what Potent mbBAFF Neutralization IC90 was measured for Reference 2 (antibody, human IgG1, lambda, V domains shown, Comparator anti-BAFF antibody) VH: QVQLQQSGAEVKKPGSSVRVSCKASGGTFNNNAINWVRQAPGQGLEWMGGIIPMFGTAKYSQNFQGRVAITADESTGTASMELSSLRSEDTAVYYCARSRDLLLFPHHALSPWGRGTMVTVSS VL: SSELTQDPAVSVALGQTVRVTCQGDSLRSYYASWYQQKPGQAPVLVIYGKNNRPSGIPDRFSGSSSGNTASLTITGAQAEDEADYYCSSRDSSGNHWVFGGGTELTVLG ?
Response: 0.151

Query: Any idea what Potent mbBAFF Neutralization IC90 was measured for 1070A6B7 (antibody, V domains shown) VH: QVPLQQPGAEMVRPGASMRLSCKASGYTFPGYWMHWVKQRPRQGLEWIAKIDPSDSETHYNQNFKDKATLTVDKYSNTVYMQLNSLTSEDSAVYYCANEGWDSLTKVWFGWWGQGTLVTVSA VL: DVVMTQTPLSLPVSLGDQASISCRCSQSLVHSNGNTYLHWYLQKPGQSPKLLIYKVSDRFSGVPDRFSGSGSGTDFTLRISRVEADDLGVYFCSQSTHVPLTFGAGTKLELK ?
Response: 0.00106

Query: Any idea what Potent mbBAFF Neutralization IC90 was measured for 1094C4E6 (antibody, V domains shown) VH: EVQLQQSGAELVRPGASVKLSCTASGFNIKDDYMHWVKQTPEQGLEWIGRIDPAYGNGKYVPKFQDKATITADTSSNTAYLQLSSLTSEDTAVYYCARRYYAVSSVDYALDYWGQGTSVTVSS VL: DIVMTQSHKFMSTSVGDRVTITCKASQDVATAVAWYQQKPGQSPKLLIYWASTRHTGVPDRFTGSGSGTDFTLTISNVQSEDLANYFCQQYSNYPYTFGGGTTLEIK ?
Response: 0.175

Query: Any idea what Potent mbBAFF Neutralization IC90 was measured for Reference 1 (antibody, human IgG4 S228P, kappa, V domains shown, Comparator anti-BAFF antibody) VH: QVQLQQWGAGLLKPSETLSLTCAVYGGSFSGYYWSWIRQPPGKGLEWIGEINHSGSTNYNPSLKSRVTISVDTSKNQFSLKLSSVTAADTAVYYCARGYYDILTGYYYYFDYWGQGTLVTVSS VL: EIVLTQSPATLSLSPGERATLSCRASQSVSRYLAWYQQKPGQAPRLLIYDASNRATGIPARFSGSGSGTDSTLTISSLEPEDFAVYYCQQRSNWPRTFGQGTKVEIKR ?
Response: 0.00105
